test system: HEK-293T; assay: Multiplex assay against HEK293T; format: toxicity, cell-based; conditions: human, 12 h, 1 µM, compound concentration 1 uM, replicate 1
assay-metric: Population Apoptotic (%)
Unit % implied. Number only.

Recorded results for 3 compounds are shown here.
{"columns": ["compound", "tested-target", "assay-metric", "readout-number"],
 "data": [
  ["CN(C)CCCc1cc(C(=O)Nc2ccc(-c3ccncc3)cc2)ccc1O.Cl.Cl", "HEK-293T", "Population Apoptotic (%)", 27],
  ["N[C@@]1(C(=O)O)CO[C@H]2[C@H](C(=O)O)[C@H]21", "HEK-293T", "Population Apoptotic (%)", 40],
  ["CCCN1CCC[C@@H]2Cc3n[nH]cc3C[C@H]21.Cl [QUINPIROLE HYDROCHLORIDE]", "HEK-293T", "Population Apoptotic (%)", 32]
]}

Input line: Which Population Apoptotic (%) value is on record for `O=C(NCCO)c1cccc(-c2cc(Nc3ccc(OC(F)(F)F)cc3)ncn2)c1` ?
Output line: 27

Input line: Same question for CN1CCN2c3ncccc3Cc3ccccc3C2C1 (stereo not given) please.
Output line: 58

###

tested on: HEK-293T; test: Multiplex assay against HEK293T; assay type: toxicity, cell-based; details: human, 24 h, 1 µM, compound concentration 1 uM, replicate 1
assay-metric: Total Cell Count
No unit in the answer, please; the number alone is enough.

{"columns": ["compound", "assay-metric", "readout-number"],
 "data": [
  ["CN(C)c1ccnc2sc3c(=O)n(N4CCCCCC4)cnc3c12", "Total Cell Count", 510],
  ["N[C@@]1(C(=O)O)CO[C@H]2[C@H](C(=O)O)[C@H]21", "Total Cell Count", 517],
  ["COc1ccc2c(c1)C(C(=O)N(Cc1ccc(N(C)C)cc1)c1ccc(C(C)C)cc1)CCC2.Cl (centres undefined)", "Total Cell Count", 567]
]}

Kindly review the next compound as well.
Input line: Test system HEK-293T; read-out Total Cell Count; what value for CCCN1CCC[C@@H]2Cc3n[nH]cc3C[C@H]21.Cl [QUINPIROLE HYDROCHLORIDE] ?
Output line: 600

###

test system: U2OS; experiment: Multiplex assay against U2OS; format: toxicity, cell-based; settings: human, 12 h, 1 µM, compound concentration 1 uM, replicate 1
Population Healthy Nuclei (%) values by entry
Unit % implied. Number only.

Recorded results for 2 compounds are shown here.
{"columns": ["compound", "readout-number"],
 "data": [
  ["O=C1COc2nccc(-c3ccccc3F)c2CN1Cc1cc(C(F)(F)F)cc(C(F)(F)F)c1", 72],
  ["CCOc1c2c(c(OCC)c3ncccc13)CN(c1ccc(CS(=O)(=O)NC(=O)Cc3ccccc3OC)cc1C)C2=O", 70]
]}

Kindly review the next compound as well.
Input line: Which Population Healthy Nuclei (%) value is on record for Cc1ccccc1C(=O)Nc1ccc(C(=O)N2CCCC(N(C)C)c3ccccc32)cc1.Cl (stereo not drawn) ?
Output line: 70

###

test system: U2OS; assay: Multiplex assay against U2OS; format: toxicity, cell-based; conditions: human, 24 h, 10 µM, compound concentration 10 uM, replicate 1
assay-metric: Population Healthy Nuclei (%)
Unit % implied. Number only.

{"columns": ["compound", "tested-target", "Population Healthy Nuclei (%)"],
 "data": [
  ["O=C(O)Cc1ccccc1Nc1c(Cl)cccc1Cl [DICLOFENAC]", "U2OS", 72],
  ["CCOc1c2c(c(OCC)c3ncccc13)CN(c1ccc(CS(=O)(=O)NC(=O)Cc3ccccc3OC)cc1C)C2=O", "U2OS", 61],
  ["COc1ccc2c(c1)C(C(=O)N(Cc1ccc(N(C)C)cc1)c1ccc(C(C)C)cc1)CCC2.Cl (stereo not drawn)", "U2OS", 50],
  ["C[C@@H]1C[C@H]2[C@@H]3CCC4=CC(=O)C=C[C@]4(C)[C@@]3(F)[C@@H](O)C[C@]2(C)[C@@]1(O)C(=O)CO [DEXAMETHASONE]", "U2OS", 74],
  ["N[C@@]1(C(=O)O)CO[C@H]2[C@H](C(=O)O)[C@H]21 [LY-379268]", "U2OS", 66],
  ["CCCC(CCC)C(=O)O [VALPROIC ACID]", "U2OS", 71]
]}

Input line: Which Population Healthy Nuclei (%) value is on record for `O=C1COc2nccc(-c3ccccc3F)c2CN1Cc1cc(C(F)(F)F)cc(C(F)(F)F)c1` ?
Output line: 43

Input line: Same question for `CN(C)CCCc1cc(C(=O)Nc2ccc(-c3ccncc3)cc2)ccc1O.Cl.Cl` please.
Output line: 58
